system: HCC-2998 colon; assay: NCI tumour cell line growth inhibition, 48 h
Please go through the items and note down their GI50.

Given the compound "O=C(c1ccccc1)N(C(=S)NCCc1ccc(Cl)cc1)c1ccc(Cl)cc1" , what is its reported GI50?
8.54 µM

Likewise for "Cc1ccc(Cl)cc1Nc1nc(C(F)(F)F)ccc1C(N)=O" ?
6.1 µM

Moving on to "O=C1Nc2ccccc2/C1=C/C(=N/c1nnc(-c2ccc(Cl)cc2)s1)c1ccccc1"
8.11 µM

Next record, please: "CN(C)c1ccc2nc3ccc(=[N+](C)C)c([N+](=O)[O-])c-3sc2c1"
5.18 µM

Same read-out for "COC(=O)c1oc2c(C(C)=O)c(OCCN3CCOCC3)c(OC)cc2c1C" ?
> 100 µM

---

test system: TK-10 renal; experiment: NCI tumour cell line growth inhibition, 48 h; in the data active = GI50 below about 0.43 µM; inactive = the rest
Respond with a class label; see active, inactive

Lab log entry: "Cc1cc2nc(CS)[nH]c2cc1C" — outcome as called in the assay?
inactive

Could you do the same for "CC[C@H](C)[C@H](NC(=O)C12CC(NC)(C1)C2)C(=O)N(C)[C@H](C[C@@H](OC(C)=O)c1nc(C(=O)N[C@@H](Cc2ccccc2)C[C@H](C)C(=O)OC)cs1)C(C)C" , please?
inactive

// next record "CC(C)c1ccc(COCc2cc(CN3CCCC3)c(O)c3ncccc23)cc1"
active

Next record, please: "COc1cccc(CNCCN2C(=O)c3ccc4c5c(ccc(c35)C2=O)C(=O)N(CCNCc2cccc(OC)c2)C4=O)c1"
inactive

// next record CCn1cc(C2NC(=O)c3ccccc3N2)c2cccc(C)c21 (centres undefined)
inactive

Then this molecule: "COc1ccc(OC)c(N(CCN2C(=O)c3ccccc3C2=O)C(=O)CCl)c1"
inactive

Another molecule to look at: "Cn1ccnc1C(=O)/C=C/c1ccc(C(=O)Nc2ccc(F)cc2)cc1"
inactive

"CCOC(=O)C(=Cc1ccc(-c2ccccc2)cc1)C(=O)OCC" ?
inactive

Same read-out for "COc1ccc2c(c1)C(=Nc1ccc(F)c(F)c1F)c1c-2c(Nc2ccc(F)c(F)c2F)nc2ccccc12" ?
inactive

---

tested on: PC-3 prostate; assay: NCI tumour cell line growth inhibition, 48 h
Task for the reader: assign each of the following compounds its reported TGI.

Item COc1ccc(N=NC(=O)NC(CC(C)C)C(=O)NC(CC(C)C)C(=O)O)cc1 (centres undefined) has what recorded TGI?
> 100 µM

// same read-out, input: CC(=O)Oc1cn(-c2ccc(Cl)cc2)nc1C1=NN(C(C)=O)C(c2ccc(F)cc2F)O1 (centres undefined)
> 100 µM

And for "CCCCC(CCCC)=NNC(=S)SC" ?
> 100 µM

Same lookup for "COc1ccc2cnc(N)c(C#Cc3cc(C(=O)Nc4ccc(CN5CCN(C)CC5)c(C(F)(F)F)c4)cnc3C)c2c1" , please.
9.17 µM

Please give the result for "O=C(O)c1ccc2nc(-c3ccc(OCCCCCOc4ccc(-c5nc6ccc(C(=O)O)cc6[nH]5)cc4)cc3)[nH]c2c1" too.
> 100 µM

Item: CCOc1cc2ncc(C#N)c(Nc3ccc(F)c(Cl)c3)c2cc1NC(=O)CC1CCSS1 (centres undefined)
1.21 µM

Similarly, "COc1ccc2c(c1)C(=Nc1ccc(F)c(F)c1F)c1c-2c(Nc2ccc(F)c(F)c2F)nc2ccccc12" ?
> 100 µM

And Cn1c(CCC2(C)Cc3ccccc3C(=O)O2)cc2ccccc2c1=O (centres undefined) ?
46.5 µM

Now consider "COc1ccc2c(N=[N+]=[N-])c(-c3ccccc3)c(=O)oc2c1" .
> 100 µM

For "COc1cccc(CNCCN2C(=O)c3ccc4c5c(ccc(c35)C2=O)C(=O)N(CCNCc2cccc(OC)c2)C4=O)c1" then?
21.6 µM

Would you mind doing NCCN1C(=O)c2cc(Cl)c(Cl)cc2C1(O)c1ccc(Cl)cc1 (centres undefined) as well?
19.3 µM

Check "COc1cc(O)c2c3c(ccnc13)-c1ccccc1N2" too.
> 100 µM

Now give it for "COC(=O)c1oc2c(C(C)=O)c(OCCN3CCOCC3)c(OC)cc2c1C" too.
> 100 µM

Follow-up item: "Cc1nc2ccccc2c(=O)n1NC(=O)c1ccc(N)cc1"
> 100 µM

Same again, this time with "Cc1cccc(C)c1NC(=O)/C=C/c1ccccc1"
> 100 µM

Ok, now "Oc1cc2ccccc2cc1-c1n[nH]c(=S)n1CCc1ccccc1"
43.5 µM

Continue with COC(=O)C12C3C4C1C1C2C3C41C(=O)NC(C)(C)CC(=O)O (centres undefined)
> 100 µM

// query: "Cc1ccc(Cl)cc1Nc1nc(C(F)(F)F)ccc1C(N)=O"
71.1 µM

Same for "O=C(Cn1nnc(-c2ccccc2)n1)N/N=C/c1cn(Cc2ccc(Cl)cc2Cl)c2ccccc12"
> 100 µM

# iterate: CC(C)(O)C1CC[C@]2(C)CC[C@]3(C)[C@H](CC[C@@H]4[C@@]5(C)CC[C@H](O)C(C)(C)[C@@H]5CC[C@]43C)[C@@H]12 (some centres undefined)
> 100 µM

Next: CC1=NOC(C)(O)/C1=N/O (centres undefined)
> 100 µM

Repeat with COc1ccc(C(=O)N2N=C(c3ccc(Br)cc3)CC2c2cn(-c3ccccc3)nc2-c2ccccc2)cc1 (centres undefined)
> 50 µM

Record: "CN(C)C=Nc1ccc2c3c(cccc13)-c1ccccc1-2"
26.3 µM

One more compound: "CCc1nc(N)c2nc(-c3ccc(C#N)cc3)oc2n1"
> 100 µM

---

test system: SF-295 CNS; assay: NCI tumour cell line growth inhibition, 48 h; in the data active = GI50 below about 0.43 µM; inactive = the rest
Pick one: Y (active), N (inactive)

Give the logged outcome of this assay for the following compound: CCn1cc(C2NC(=O)c3ccccc3N2)c2cccc(C)c21 (stereo unspecified)
Y

Now the same for COc1cc2c(c(OC)c1OC)-c1ccc(SC)c(=O)cc1C(CC(=O)Oc1ccc(F)cc1)C2 (stereo unspecified)
Y

Also "Cc1ccc(Cl)cc1Nc1nc(C(F)(F)F)ccc1C(N)=O" ?
N

And then "CN1CCN(CCCOc2ccc3ncnc(Nc4ccc(OCc5cccc(F)c5)c(Cl)c4)c3c2)CC1" , what is it?
N

Again, but for "Cn1ccnc1C(=O)/C=C/c1ccc(C(=O)Nc2ccc(F)cc2)cc1"
N

Next compound up: "N#Cc1cc2c(cc1Cl)SC(=Nc1ccccc1)N(S(=O)(=O)c1ccc(Cl)cc1)S2(=O)=O"
N

Also "COc1cc(/C=C\c2cc(/C=C\c3ccc(O)c(OC)c3)n(C(=O)COc3ccc(Cl)cc3Cl)n2)ccc1O" ?
N

And then "C=C1CC[C@@H]2C(C)(C)[C@H](O)CC[C@@]2(C)[C@@H]1COc1ccc2ccc(=O)oc2c1" , what is it?
N

Next record, please: "Cc1ccc2c(c1)C(=O)C(c1c(-c3[nH]c(=O)c4ccc(C)cc4c3O)c(O)c3ccccc3c1O)=NC2=O"
N

Then "COc1ccc2c(c1)c(-c1nonc1-c1cn(C)c3ccccc13)cn2C" ?
Y

Note, next up: "COc1cccc(CNCCN2C(=O)c3ccc4c5c(ccc(c35)C2=O)C(=O)N(CCNCc2cccc(OC)c2)C4=O)c1"
N

Input "COc1cc(O)c2c3c(ccnc13)-c1ccccc1N2"
N

"Fc1cc(-c2csc3n[nH]c(=S)n23)c(Cl)cc1Cl" , same question.
N

Repeat for the following compound: CCOc1cc2ncc(C#N)c(Nc3ccc(F)c(Cl)c3)c2cc1NC(=O)CC1CCSS1 (stereo unspecified)
N

// next record "CCOC(=O)C(=Cc1ccc(-c2ccccc2)cc1)C(=O)OCC"
N

What about "COc1ccc2cnc(N)c(C#Cc3cc(C(=O)Nc4ccc(CN5CCN(C)CC5)c(C(F)(F)F)c4)cnc3C)c2c1" ?
N

Same for Cc1ccc(C2CC(c3cccc(Nc4ccncc4)c3)=NN2c2cc(Cl)cc(Cl)c2)cc1 (stereo unspecified)
N

Same for COc1ccc(-c2nc(S(=O)(=O)c3ccccc3)c(S(=O)CC(=O)N3CCC(C)CC3)o2)cc1 (stereo unspecified)
N

Please do the same for "O=C(c1ccccc1)N(C(=S)NCCc1ccc(Cl)cc1)c1ccc(Cl)cc1" as well.
N

Entry to check: "O=C(O)c1ccc2nc(-c3ccc(OCCCCCOc4ccc(-c5nc6ccc(C(=O)O)cc6[nH]5)cc4)cc3)[nH]c2c1"
N

What do you get for "Cc1cc(Cl)ccc1Nc1nc(C(F)(F)F)ccc1C(=O)N/N=C/c1cccc(O)c1" ?
Y

---

tested on: HOP-18 NSCLC; test: NCI tumour cell line growth inhibition, 48 h
attribute_measured: TGI

What is its TGI for HOP-18 NSCLC? Entry: N/N=C(\CCN1CCCC1)CC(c1ccccc1)c1c(O)c2ccccc2oc1=O (stereo not given)
> 100 µM

What about "Oc1c(CNCCCN2CCCC2)cc(Cl)c2cccnc12" ?
20.6 µM

Would you mind doing "Cn1ccnc1CCc1ccc(Cl)cc1Cl" as well?
> 100 µM

Same lookup for "CCOC(=O)c1sc2c(sc(=O)n2-c2ccccc2)c1O" , please.
> 100 µM

Next compound up: "COc1ccc2ccnc(Cc3ccc(OCc4ccccc4)c(OC)c3)c2c1"
62.5 µM

Next: "CCN(C(C)=N)c1ccccc1"
> 100 µM

Same read-out for CC(=O)NC(CCCN(Cc1ccccc1)C(=O)NCCCl)C(=O)NCc1ccccc1 (stereo not given) ?
> 100 µM

Another compound to look at: "CCOC(=O)COc1ccc(OC)c2c1C(=O)CCC2"
> 100 µM

Next compound up: "Cc1ccc(NC(=O)CC(=O)n2nc(-c3ccccc3)c(N=Nc3ccccc3[N+](=O)[O-])c2-c2ccccc2)cc1"
> 100 µM

// same read-out, input: O=C1C(C(Nc2ccccc2)c2ccccc2)=C([O-])c2ccccc21.O=C1C(C(Nc2ccccc2)c2ccccc2)=C([O-])c2ccccc21.[Ni+2] (stereo not given)
> 100 µM

Try "COc1cc2c(cc1O)[C@@]1(Cc3ccc(OC)c(OC)c3)CCC(=O)N1CC2" next.
> 100 µM

How about "Cc1ccc(Oc2ccc(C(=O)c3cccc(C(=O)c4ccc(Oc5ccc(C)cc5)cc4)n3)cc2)cc1" ?
> 100 µM

Same again, this time with "C/C(=N/NC(=O)c1ccccc1O)c1ccc(/C(C)=N\NC(=O)c2ccccc2O)c2nc3cc(C)c(C)cc3nc12"
> 100 µM

Would you mind doing "Cn1cc(NC(=O)c2cc(NC(=O)CCCCCCCCC(=O)Nc3cc(C(=O)Nc4cc(C(=O)NCCC(N)N)n(C)c4)n(C)c3)cn2C)cc1C(=O)NCCC(=N)N" as well?
47.2 µM

Try the compound COc1ccc(C2Oc3ccc(O)cc3[C@@H]2C)cc1OC (stereo not given in full)
> 100 µM

These measurements were taken from PubChem BioAssay (NCI).
